The reported numbers originate from the supplement of paper PMC9170038.

- Test system: MS2 coat protein
- assay.procedure: apparent KD of MS2 coat protein; designed switch direction (-1 OFF switch, 1 ON switch): 1; higher = weaker reporter binding
- run.parameters: input ligand: microRNA oligo, concentration not stated
Measured apparent KD of MS2 coat protein of individual entries

[
  {
    "sequence": "AUUCGAUAGAUAGGAUAUCACCAUACAUGAGGAUCACCCAUGUUGACCACGCUGGUUAUUCAUACUGAGAAGGAUCUUGAUGAC [JR_SSNG2_Sub005] (Eterna round: R96, puzzle: Same State NG 2)",
    "assay.system": "MS2 coat protein",
    "apparent KD of MS2 coat protein (nM)": 31.1
  },
  {
    "sequence": "GGAAUAUUUACAGGAUAUGAUUUGUAAAUUCGAUCAGAAGGGUGGAUGUCUUACACGGUUUGUUACAUGAGGAUCACCCAUGUC [SameState NG1 #12] (Eterna round: R96, puzzle: Same State NG 1)",
    "assay.system": "MS2 coat protein",
    "apparent KD of MS2 coat protein (nM)": 253
  },
  {
    "sequence": "AAGAUGCUCGUAGGAUAUUGGAAAGGAAGUGUACAAGAAGGACGGUGUCACAUGAGGAUCACCCAUGUUACAGUCUAAGGACUA [PowerStrip SSNG 1.16] (Eterna round: R96, puzzle: Same State NG 1)",
    "assay.system": "MS2 coat protein",
    "apparent KD of MS2 coat protein (nM)": 13.2
  },
  {
    "sequence": "AUUAUUUCAUGAGGAUAUGGCACCUUAUUGGUGCCAGAAGGCAUGUCUAUUGACAUGAGGAUCACCCAUGUAUUAAAUUAUAUA [Eli NG1ss - 89] (Eterna round: R96, puzzle: Same State NG 1)",
    "assay.system": "MS2 coat protein",
    "apparent KD of MS2 coat protein (nM)": 387
  },
  {
    "sequence": "GUGGUGAAUUAAGGAUAUCGAGUCUAGAUGUUAAACAUGAGGAUCACCCAUGUGGGUUGCGGUGUCGAGAAGGUGAUUUACGGG [salish99_SSNG2_r04_509] (Eterna round: R96, puzzle: Same State NG 2)",
    "assay.system": "MS2 coat protein",
    "apparent KD of MS2 coat protein (nM)": 79.6
  }
]

* * *

Measured apparent KD of K4 kissing-loop reporter of individual entries
- Tested on: K4 kissing-loop RNA reporter;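 further: bound reporter read as fluorescence of individual clusters on recovered sequencing chips by microscopy, with normalized cluster intensities fitted with a binding model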
- assay.procedure: apparent KD of K4 kissing-loop reporter; higher = weaker reporter binding
- run.parameters: Eterna round: R107; input ligand: arginine 13.2 mM

[
  {
    "sequence": "GUGAGGAUCAGAAGGAGCGUCGGCAAUCCAGUGAUGUUGGGUGUUGGUUAUAUUUAACGACGACAGGUAGGUCGCUGAUUUUCAA [Same State Arginie B GF 21]",
    "assay.system": "K4 kissing-loop RNA reporter",
    "apparent KD of K4 kissing-loop reporter": "107 nM"
  },
  {
    "sequence": "AGGAGCGUGCGAUGGAAAUCGCACGCUCCUCGAGGACCGGUACGGCCGCCACUCGCUCGCGCCGAGUGAUGUUCGGCCGGCGAAG [#2 Same State - Tryptophan A Attempt #16 (HarryS)]",
    "assay.system": "K4 kissing-loop RNA reporter",
    "apparent KD of K4 kissing-loop reporter": "128 nM"
  },
  {
    "sequence": "UCCUAGGCUCGAAAGAGCCUAGGAUUUACUCAGGAUAUCCGGAAACGGAGAAGGGAGUGACUAGUGAUGUUAGGGACUCCCUAAA",
    "assay.system": "K4 kissing-loop RNA reporter",
    "apparent KD of K4 kissing-loop reporter": "80.8 nM"
  },
  {
    "sequence": "GGAUAGGACAGAGGAUAUGGGCUAGGCAAGAAUAACUUGUCUAGCAAAUCCAUGAGGAGUGAUGUUCCAGAAGGCUGUCCUAUCG [FmnBX 1 - #SwitchBubble #StraticStem #DoubleMagnetSystem]",
    "assay.system": "K4 kissing-loop RNA reporter",
    "apparent KD of K4 kissing-loop reporter": "167 nM"
  },
  {
    "sequence": "CGUGUAAUGUGGAGAUUUGAAAAGGCGCAUCGAGGACCGGUACGGCCGCCACUCGCUACGAGCUAGUGAUGUUGGCUCGUUCGGA [theeternabot_sameState_KL_Trp_A_23]",
    "assay.system": "K4 kissing-loop RNA reporter",
    "apparent KD of K4 kissing-loop reporter": "209 nM"
  }
]

* * *

- Test system: MS2 coat protein
- assay.procedure: apparent KD of MS2 coat protein; higher = weaker reporter binding
- run.parameters: Eterna round: R107; input ligand: theophylline 2 mM
Measured apparent KD of MS2 coat protein of individual entries

[
  {
    "sequence": "UGUCAGCGAAAGUUGACAUGCAGUGCCGGUCGAGGACCGGUACGGCCGCCACUCGAUCUCUCGUACAUGAGGAUCACCCAUGUCG [SS Tryp A #19]",
    "assay.system": "MS2 coat protein",
    "unit.descriptor": "nM",
    "apparent KD of MS2 coat protein": 14.9
  },
  {
    "sequence": "AAUUUUAACGGAAGGAGCGUCAAUUAAUACAAACAUGAGGAUCACCCAUGUCAAUACAUGAGACAGGUAGGUCGCCGUUAUUUGA [JR_AAArginiB_Sub024]",
    "assay.system": "MS2 coat protein",
    "unit.descriptor": "nM",
    "apparent KD of MS2 coat protein": 21.7
  },
  {
    "sequence": "ACAUGACAACAUGAGGAUCACCCAUGUCAUCGAGGACCGGUACGGCCGCCACUCGGUCAAUAUGAUACUUGUCAUGAACAUGAGG [Exclusion Tryptophan A 2]",
    "assay.system": "MS2 coat protein",
    "unit.descriptor": "nM",
    "apparent KD of MS2 coat protein": 21.3
  },
  {
    "sequence": "CAUAUAUAUGGAAGGAGCGCGAUUACAUAACAUGAGGAUCACCCAUGUAAGAAAUUAUUCAUGCAGGUAGGUCGCCAUAUAUAUG [Same State Arginine B GF6]",
    "assay.system": "MS2 coat protein",
    "unit.descriptor": "nM",
    "apparent KD of MS2 coat protein": 27
  },
  {
    "sequence": "GAUUAAACAUGAGGAUCACCCAUGUAUAUACGAGGACCGGUACGGCCGCCACUCGAAAACGAGUAUCCUCGAAUAAACAUGAUAA [AK 2 SS Trypt (A)]",
    "assay.system": "MS2 coat protein",
    "unit.descriptor": "nM",
    "apparent KD of MS2 coat protein": 52.8
  },
  {
    "sequence": "GCCGCUGCCGCGAUAUGUAUGGGUGUGUAACGAGGACCGGUACGGCCGCCACUCGCGAUCGCACAUGAGGAUCACCCAUGUGUCC [Exclusion Tryp A GF18]",
    "assay.system": "MS2 coat protein",
    "unit.descriptor": "nM",
    "apparent KD of MS2 coat protein": 68
  },
  {
    "sequence": "UUACACAUCUCGGCCGCCACUGGCUUCAAAAUAAUGUGUACAUGAGGAUCACCCAUGUCCGAGCUCAGGACCGGGAGCAAAGAAG [SS Tryp B #14]",
    "assay.system": "MS2 coat protein",
    "unit.descriptor": "nM",
    "apparent KD of MS2 coat protein": 28.4
  },
  {
    "sequence": "CGUUAAGAAUCGGCCGCCACUCCAUACGUGUGAAUCGCGGAUCGACAUGAGGAUCACCCAUGUCGGAGGACCGGGAUCCUCUUUC [theeternabot_sameState_MS2_Trp_B_12]",
    "assay.system": "MS2 coat protein",
    "unit.descriptor": "nM",
    "apparent KD of MS2 coat protein": 48
  },
  {
    "sequence": "GGAAACCCGACGGCCGCCACUAACGGUCUCAAAAGAGGUUGAACACAUGAGGAUCACCCAUGUAAUAGGACCGGGUCGUGUGAAA [Design 1]",
    "assay.system": "MS2 coat protein",
    "unit.descriptor": "nM",
    "apparent KD of MS2 coat protein": 19.4
  },
  {
    "sequence": "GGACUAACCAGAAGGAGCGGCACGCAGAAACUGCAAUUUCCUCCACACGAGGAUCACCCGUGUCAGGUAGGUCGCUGGUUAGUCG [ArgBX 29]",
    "assay.system": "MS2 coat protein",
    "unit.descriptor": "nM",
    "apparent KD of MS2 coat protein": 23.8
  },
  {
    "sequence": "AUUAACAUGAGGAUCACCCAUGUUCUCACACGAGGACCGGUACGGCCGCCACUCGGUUUGGUAUUGGUCACUAGGCAGUUAGGAG [theeternabot_sameState_MS2_Trp_A_12]",
    "assay.system": "MS2 coat protein",
    "unit.descriptor": "nM",
    "apparent KD of MS2 coat protein": 17
  },
  {
    "sequence": "UUGACAUGAGGAUCACCCAUGUCAAAGGCACGAGGACCGGUACGGCCGCCACUCGUGGUCUAUGGCUGGUGGACUCGUGUCUCGG [Soisusdira]",
    "assay.system": "MS2 coat protein",
    "unit.descriptor": "nM",
    "apparent KD of MS2 coat protein": 16.8
  }
]
